Target: His6-RORγt ligand binding domain (Homo sapiens)
Sequence (P51449 269-508 limits assumed): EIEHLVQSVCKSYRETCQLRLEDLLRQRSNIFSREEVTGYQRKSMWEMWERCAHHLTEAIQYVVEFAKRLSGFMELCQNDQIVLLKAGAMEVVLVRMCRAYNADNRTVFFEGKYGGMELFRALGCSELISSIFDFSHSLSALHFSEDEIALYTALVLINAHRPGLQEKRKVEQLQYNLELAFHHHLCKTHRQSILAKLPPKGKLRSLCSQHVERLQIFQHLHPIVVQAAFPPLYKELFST
Test: TR-FRET coactivator recruitment assay
Assay type: biochemical
Conditions: Table 2; cholesterol concentration of 0 μM; read-out: IC50
property: IC50 (µM)
Report only the number, with the unit µM understood.

structureAsSmiles | resultUnits | IC50
O=C(O)c1ccc(/N=C/c2c(-c3c(Cl)cccc3C(F)(F)F)noc2-c2cc[nH]c2)cc1 | µM | 46.6
O=C(O)c1ccc(NCc2c(-c3c(Cl)cccc3C(F)(F)F)noc2-c2cccs2)cc1 | µM | 1.8
O=C(O)c1ccc(CNc2c(-c3c(Cl)cccc3C(F)(F)F)noc2-c2ccccc2)cc1 | µM | 30.9
O=C(O)c1ccc(-c2c(-c3c(Cl)cccc3C(F)(F)F)noc2-c2ccccc2)cc1 | µM | 8.2
O=C(O)c1ccc(S(=O)(=O)Nc2c(-c3c(Cl)cccc3C(F)(F)F)noc2-c2ccccc2)cc1 | µM | 62.6
O=C(O)c1ccc(CNC(=O)c2c(-c3c(Cl)cccc3C(F)(F)F)noc2-c2ccccc2)cc1 | µM | 8.8

Query block: Consider the compound O=C(O)c1ccc(NCc2c(-c3c(Cl)cccc3C(F)(F)F)noc2-c2ccco2)cc1 . State its measured IC50.
Result block: 1.1

Query block: Consider the compound O=C(O)c1ccc(NC(=O)c2c(-c3c(Cl)cccc3C(F)(F)F)noc2-c2ccccc2)cc1F . State its measured IC50.
Result block: 91.1

Query block: Consider the compound O=C(O)c1cccc(NC(=O)c2c(-c3c(Cl)cccc3C(F)(F)F)noc2-c2ccccc2)c1 . State its measured IC50.
Result block: 73.9

Query block: Consider the compound O=C(O)c1ccc(NC(=O)c2c(-c3c(Cl)cccc3C(F)(F)F)noc2-c2ccccc2)cc1 . State its measured IC50.
Result block: 53.5

Query block: Consider the compound O=C(O)c1ccc(NCc2c(-c3c(Cl)cccc3C(F)(F)F)noc2-c2cccc(O)c2)cc1 . State its measured IC50.
Result block: 6.6

Query block: Consider the compound O=C(O)c1ccc(NCc2c(-c3c(Cl)cccc3C(F)(F)F)noc2-c2ccccc2)cc1 . State its measured IC50.
Result block: 9.6

Cited source: patent US20210387973A1
